Assay: Cyclic voltammetry, first half-wave potential
Format: physicochemical
Protocol: The redox potentials of the members of the series were measured by cyclic voltammetry in acetonitrile as solvent, at room temperature, using a platinum electrode and 0.1 M tetraethylammonium tetrafluoroborate as the supporting electrolyte. […] The voltammograms were run in the potential range 0–2.0 V versus non-aqueous Ag/Ag+. The first half-wave potential values, E^I1/2, evaluated from the voltammograms obtained at a sweep rate of 100 mV s^−1, are summarized in Table 3.
observation type: E^I1/2 (half-wave potential)

May I ask what E^I1/2 (half-wave potential) has been recorded for CC(=O)c1c(C)ncc2c1C(=O)C=C(Nc1ccccc1)C2=O [6a] ?
-464 mV
